B1: SLC35F2 (parent)
chain: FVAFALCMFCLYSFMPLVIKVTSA

Variants of: B1
method description: protein stability index of a GFP-peptide fusion (GPS, HEK-293T) (PSI 1-6); higher = more stable;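 also: lentivirally expressed fusions sorted by FACS into six bins by GFP to DsRed ratio, PSI derived from sequencing read proportions per bin multiplied by bin number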
setup conditions: c terminus: a fixed tail appended
Class 1: protein stability index at least 3. Class -1: protein stability index below 3.

mutations=M15Q qualitative_label=1
mutations=F4V qualitative_label=1
mutations=S13A qualitative_label=-1
mutations=L17E qualitative_label=-1
mutations=V2E qualitative_label=-1
mutations=A24V qualitative_label=1
mutations=L6S qualitative_label=1
mutations=V21S qualitative_label=1
mutations=A24E qualitative_label=-1
mutations=F1D qualitative_label=-1
mutations=L17I qualitative_label=-1
mutations=C7K qualitative_label=-1
mutations=F14L qualitative_label=1
mutations=Y12D qualitative_label=-1
mutations=V2F qualitative_label=-1
mutations=M8Y qualitative_label=1
mutations=M15W qualitative_label=-1
mutations=C7F qualitative_label=-1
mutations=T22N qualitative_label=1
mutations=L17F qualitative_label=-1
mutations=C7T qualitative_label=-1
mutations=Y12R qualitative_label=-1
mutations=L11F qualitative_label=-1
mutations=F1V qualitative_label=-1
mutations=L6C qualitative_label=-1
mutations=S13V qualitative_label=1
mutations=F14I qualitative_label=1
mutations=C7R qualitative_label=1
mutations=C10M qualitative_label=-1
mutations=M15T qualitative_label=-1
mutations=A3T qualitative_label=-1
mutations=V21Y qualitative_label=1
mutations=F14R qualitative_label=1
mutations=S23W qualitative_label=-1
mutations=F1C qualitative_label=-1
mutations=F1R qualitative_label=1
mutations=F4I qualitative_label=-1
